# System: test strain 923 pPvra-lux
# Assay Details: Secondary screen / synergy confirmation of Top 40, relative growth with oxacillin
# Format: cell-based, Staphylococcus aureus
# Condition Description: Top 40 library, compound at maximum non-GI conc
We label by threshold. Values of RG Ox avg strictly beneath 1 are TRUE. Values of 1 and up are FALSE.

* Fc1cccc(Nc2nc(Nc3ccc(F)c(Cl)c3)nc(N3CCOCC3)n2)c1 [F2703-0396] | TRUE
* Cc1ccc(-c2nnc(NC(=O)c3ccc(S(=O)(=O)N4CCc5ccccc5C4)cc3)o2)c(C)c1 [F2518-0213] | FALSE
* CC(=O)Nc1ccc(Nc2cc(C(C)C)nc3c(-c4ccccc4)cnn23)cc1 [F3348-0533] | TRUE
* Fc1ccc(-c2csc3ncnc(Sc4nnnn4-c4ccccc4)c23)cc1 [F1142-4245] | TRUE
* OC(c1ccccc1)c1nc2ccccc2n1Cc1ccc(Cl)c(Cl)c1 (stereo not drawn) [F3068-0037] | TRUE

Decide: RG Ox avg of O=C(Nc1nnc(-c2ccc(OC(F)(F)F)cc2)o1)C1(c2cccs2)CCCC1 [F2517-0863] strictly below 1? TRUE

====

# System: vraSR promoter (Pvra-lux reporter in strain 923)
# Assay type: cell-based, Staphylococcus aureus
# Condition Description: overall class from syn and rep
Listing: vraSR repressing synergist of selected compounds
The answer is to be given in confirmed; state only the numeric part.

* Fc1cccc(Nc2nc(Nc3ccc(F)c(Cl)c3)nc(N3CCOCC3)n2)c1 | 1.

Could you now look at the following compound, please?
Name the recorded vraSR repressing synergist for CC(=O)Nc1ccc(Nc2cc(C(C)(C)C)nc3c(-c4ccccc4)c(C)nn23)cc1 . 1.

====

# Test system: test strain 923 pPvra-lux
# Assay Details: Secondary screen / synergy confirmation of Top 40, relative growth with oxacillin
# Type: cell-based, Staphylococcus aureus
# Condition Description: Top 40 library, compound at maximum non-GI conc
# Method: In the secondary screen each microtiter plate contained either cells in TSB alone (16 replicates), cells with oxacillin (2 μg/mL, 31 replicates), or cells with test compound and oxacillin (2 μg/mL, 49 wells). Each compound was assayed in four separate biological replicates. Synergy Confirmation of “Top 40”. […]
Assay Metric: RG Ox avg

Before answering, review these 5 worked examples.
- O=C(Nc1ccc2c(c1)OCO2)Nc1nc(-c2ccccn2)cs1: 0.37
- Cc1ccc(S(=O)(=O)Nc2ccccc2C(=O)Nc2nc3c(C)ccc(Cl)c3s2)cc1: 0.85
- Cc1ccc(S(=O)(=O)Nc2ccccc2C(=O)Nc2nc3c(C)ccc(C)c3s2)cc1: 0.71
- CSc1cccc2sc(NC(=O)c3ccccc3NS(=O)(=O)c3ccc(C)cc3)nc12: 0.23
- CN(C)CCCNc1cc(C(C)(C)C)nc2c(-c3ccc(Cl)cc3)cnn12: 0.99

Name the recorded RG Ox avg for O=C(Nc1ccc(Cl)c(C(F)(F)F)c1)N1CCN(c2cc(-n3cccn3)ncn2)CC1 . 1.03

Name the recorded RG Ox avg for O=C(Nc1ccc(Cl)c(Cl)c1)N(Cc1ccsc1)Cc1ccco1 . 1.01

Name the recorded RG Ox avg for Cc1ccc(Nc2nc(N3CCN(Cc4ccccc4)CC3)nc3nccnc23)cc1C . 0.01

Name the recorded RG Ox avg for O=C(Nc1nc(-c2ccccn2)cs1)c1ccc(Br)s1 . 0.39

Name the recorded RG Ox avg for Cc1ccc(C)c2sc(NC(=O)c3cccs3)nc12 . 0.94

Name the recorded RG Ox avg for CC(C)(C)c1csc(NC(=O)c2cccc(NS(=O)(=O)c3ccc(F)cc3)c2)n1 . 0.01

Name the recorded RG Ox avg for O=S(=O)(Nc1cccc(-c2nc3ccccc3s2)c1)c1ccc(F)c(Cl)c1 . 1.24

Name the recorded RG Ox avg for O=S(=O)(Nc1cccc(-c2nc3ccccc3s2)c1)c1ccc(Cl)s1 . −0.01

Name the recorded RG Ox avg for O=C(Nc1nnc(-c2ccccc2Cl)o1)c1ccc2ccccc2c1 . 0.67

Name the recorded RG Ox avg for COc1ccc(Cl)c2sc(NC(=O)c3ccccc3NS(=O)(=O)c3ccc(F)cc3)nc12 . 1.04

Name the recorded RG Ox avg for CC(=O)Nc1ccc(Nc2cc(C(C)(C)C)nc3c(-c4ccccc4)c(C)nn23)cc1 . 0.01

Name the recorded RG Ox avg for Clc1ccc(-c2csc3ncnc(Sc4nnnn4-c4ccccc4)c23)cc1 . 0.08

Name the recorded RG Ox avg for O=C(Nc1ccc(Cl)c(Cl)c1)Nc1ccc2cn[nH]c2c1 . 0.02
